Tested on: S. aureus ATCC 29213
assay_notes: Agar dilution MIC
Assay type: cell-based, Staphylococcus aureus
applied_conditions: 35° C., 16-20 hours
experimental_readout: Antimicrobial Screening (MIC) (µg/mL)
Express it in µg/mL; write the number only.

// below: answered compounds
COC(=S)NC[C@H]1CN(c2ccc(N3CCN(C(=S)n4ccnc4)CC3)c(F)c2)C(=O)O1 [Example 76] ... 0.5
COC(=S)NC[C@H]1CN(c2ccc(N3CCN(C(=O)c4cccnc4)CC3)c(F)c2)C(=O)O1 [Example 2] ... 1

Query: Fill in the blank: the reported Antimicrobial Screening (MIC) of COC(=S)NC[C@H]1CN(c2ccc(N3CCN(C(=O)c4ccc([N+](=O)[O-])o4)CC3)c(F)c2)C(=O)O1 [Example 7] is ____.
Result: 0.125

Query: // query Antimicrobial Screening (MIC) value for entry COC(=S)NC[C@H]1CN(c2ccc(N3CCN(C(=O)c4ccno4)CC3)c(F)c2)C(=O)O1 [Example 44]
Result: 0.5

All values here come from patent US20100234390A1.
